Tested on: THP-1 cells
EXPERIMENT_DESCRIPTION: TNFα generation assay
Type: cell-based, human
REPORTED_CONDITIONS: Homo sapiens, THP-1, THP-1 cells; Table 22; read-out: IC50 in TNFα generation assay
# IC50 per record follows

Examples with answers:
>>> value_measured("NC(=O)c1cc(F)c(N[C@@H]2CCCC[C@@H]2N)nc1Nc1cncc(-n2ccnn2)c1")
"65 to 130 nM"
>>> value_measured("C[C@H](N)[C@@H](CC1CC1)Nc1nc(Nc2ccc3c(cnn3CCF)c2)c(C(N)=O)cc1F")
"65 to 130 nM"
>>> value_measured("NC(=O)c1cc(F)c(N[C@@H]2CCCC[C@@H]2N)nc1Nc1cncc(-c2ccc3[nH]ccc3c2)c1 (relative stereo)")
"130 to 200 nM"
>>> value_measured("CCC[C@H](CN)Nc1nc(Nc2ccc3ncccc3c2)c(C(N)=O)cc1F")
"< 65 nM"

Now for a further molecule.
GET /values?readout=IC50&item= CCc1nn(CCF)c2ccc(Nc3nc(N[C@@H]4CCCC[C@@H]4N)c(F)cc3C(N)=O)cc12
65 to 130 nM

====

# IC50 per record follows
EXPERIMENTAL_SYSTEM: glutathione S-transferase (GST)-fused full-length human Syk protein (Homo sapiens)
Construct: (GST)-fused full-length human Syk protein; GST (glutathione S-transferase); purchased Carna Biosciences
EXPERIMENT_DESCRIPTION: Syk enzyme assay
Assay type: biochemical
REPORTED_CONDITIONS: Syk enzyme assay, Test Example 1; read-out: IC50 of Syk-inhibitory activity

Examples with answers:
>>> value_measured("CC[C@@H](Nc1nc(Nc2cncc(-c3ccccc3)c2)c(C(N)=O)cc1F)[C@H](C)N")
"< 10 nM"
>>> value_measured("NC(=O)c1cc(F)c(N[C@@H]2CCCC[C@@H]2N)nc1Nc1cccc2c1cnn2C1CC1")
"< 10 nM"
>>> value_measured("N#Cc1cc(Nc2nc(N[C@@H]3CCCC[C@@H]3N)c(F)cc2C(N)=O)cnc1N1CCOCC1 (relative stereo)")
"10 to 50 nM"
>>> value_measured("CCC[C@@H](Nc1nc(Nc2cncc(-c3ccccc3F)c2)c(C(N)=O)cc1F)[C@H](C)N")
"< 10 nM"
>>> value_measured("NC(=O)c1cc(F)c(N[C@@H](CO)c2ccccc2)nc1Nc1ccc2ncccc2c1")
"100 to 1000 nM"
>>> value_measured("Cc1ccc(Nc2nc(N[C@@H]3CCCC[C@@H]3N)c(F)cc2C(N)=O)cn1 [Example 004-017]")
"10 to 50 nM"
>>> value_measured("CCCc1nn(C)c2ccc(Nc3nc(N[C@H](CC4CC4)[C@H](C)N)c(F)cc3C(N)=O)cc12")
"< 10 nM"
>>> value_measured("COc1ccc(F)c(-c2cncc(Nc3nc(N[C@@H](CN)CC(C)C)c(F)cc3C(N)=O)c2)c1")
"50 to 100 nM"
>>> value_measured("NCCNc1nc(Nc2cccc(Cl)c2)c(C(N)=O)cc1F")
"100 to 1000 nM"
>>> value_measured("Cn1ncc2cc(Nc3nc(N[C@@H](CN)CC4CC4)c(F)cc3C(N)=O)ccc21")
"< 10 nM"

GET /values?readout=IC50&item= CC(C)C[C@H](CN)Nc1nc(Nc2ccnc(-n3cncn3)c2)c(C(N)=O)cc1F
< 10 nM

GET /values?readout=IC50&item= C[C@H](N)[C@@H](C)Nc1nc(Nc2cncc(Cl)c2)c(C(N)=O)cc1F
10 to 50 nM

GET /values?readout=IC50&item= NC(=O)c1cc(F)c(N[C@@H]2CCCC[C@@H]2N)nc1Nc1ccc2nc(OCCN3CCOC3=O)ccc2c1 (relative stereo)
< 10 nM
